Data provenance: the supplement of paper PMC10567573

B1: ALDH8A1 (parent)
chain: RVAKKLQSGLVWTNCWLIRELNLP

variants of: B1; assay: protein stability index of a GFP-peptide fusion (GPS, HEK-293T) (PSI 1-6); higher = more stable; details: c terminus: a fixed tail appended;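 further: lentivirally expressed fusions sorted by FACS into six bins by GFP to DsRed ratio, PSI derived from sequencing read proportions per bin multiplied by bin number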
TEST_READOUT: protein stability index
One number for each entry.

Example cases with answers are listed next.
• RVAKKLQSELVWTNCWLIRELNLP [G9E] = 1.72
• RVAKKLQSGLVTTNCWLIRELNLP [W12T] = 1.61

Give protein stability index for each listed item.
1. RDAKKLQSGLVWTNCWLIRELNLP [V2D]
2. RVAKKLQSGLVWTNCWLIREHNLP [L21H]
3. RKAKKLQSGLVWTNCWLIRELNLP [V2K]

Reply:
1. 1.92
2. 2.79
3. 1.36
